Data origin: the supplement of paper PMC8728848

Biological target: Neu5Ac(a2-6)Gal(b1-3)GlcNAc(b1-3)[Gal(b1-4)GlcNAc(b1-6)]Gal(b1-4)Glc
Assay: glycan array binding signal (z-score within array); higher = stronger binding
Conditions: glycan notation: IUPAC condensed, linker removed
Only a selection was taken, and the strongest signals are over-represented in it overall.

| binder | glycan array binding signal (z-score) |
| --- | --- |
| EEA (Euonymus europaeus) (protein) MASTIIATGPTYRVYCRAAPNYNMIVGKGVAFLAPIDETNELQYWYKDDTYSYIKDEAGLPAFSLVNKATGLTLKHSNHHPVPVKLVTYNPNVVDESVLWSQADDRGDGYSAIRSLTNPASHLEAAPLNDWSYNGAIIMGGVWIDAYNQQWKIEPHTG | -0.232 |
| TAL6-4LysM (Trichoderma atroviride) (protein) AADSIPSISPTGIITPTPTQSGMVSNCNKFYDVHSNDGCSAIASSQHVDLSSLYKWNPAIKTDCSGLQASVYVCIGILTTSMSTTSKLPTTTSKPSTTSKPPTGITTPTPTQSGMVKNCNKFYDVHSGDGCSAIASSQKVNLSSFYLWNPAVKTDCSGLQASVFVCIGTLTTSMSTTTSKLPTTTSKPSTTSKPPTGIITPTPTQNGMVKNCNKFYDVHSGDGCSAIASSQKVNLSSFYLWNPAVKTDCSGLQASVFVCVGTATTTTAAGITTPTPTQSGMVSGCNKFYDVHAGDGCSAIASSQKIALSSLYKWNPAVKTDCSGLQASVYICIGVGNAAAARVTGALEQKLISEEDLNSAVDHHHHHH | 0.176 |
| MGL6A (Homo sapiens) (protein) MTRTYENFQYLENKVKVQGFKNGPLPLQSLLQRLCSGPCHLLLSLGLGLLLLVIICVVGFQNSKFQRDLVTLRTDFSNFTSNTVAEIQALTSQGSSLEETIASLKAEVEGFKQERQAVHSEMLLRVQQLVQDLKKLTCQVATLNNNGEEASTEGTCCPVNWVEHQDSCYWFSHSGMSWAEAEKYCQLKNAHLVVINSREEQNFVQKYLGSAYTWMGLSDPEGAWKWVDGTDYATGFQNWKPGQPDDWQGHGLGGGEDCAHFHPDGRWNDDVCQRPYHWVCEAGLGQTSQESH | -0.259 |
| MAL-II (Maackia amurensis), P93248 (protein) ATSNSKPTQVLLATFLTFFFLLLNNVNSSDELSFTINNFVPNEADLLFQGEASVSSTGVLQLTRVENGQPQQYSVGRALYAAPVRIWDNTTGSVASFSTSFTFVVKAPNPTITSDGLAFFLAPPDSQIPSGRVSKYLGLFNNSNSDSSNQIVAVEFDTYFGHSYDPWDPNYRHIGIDVNGIESIKTVQWDWINGGVAFATITYLAPNKTLIASLVYPSNQTSFIVAASVDLKEILPEWVRVGFSAATGYPTQVETHDVLSWSFTSTLEANSDAATENNVHIARYTA | -0.18 |
